# relative integration efficiency (log2) per entry
System: VchCAST RNA-guided transposition machinery (E. coli BL21(DE3) host, lacZ target)
assay overview: relative integration efficiency (T-LR orientation) vs wild-type transposon end (log2 (normalized fold change)); transposon end mutated: right end (5 bp flank + 75 bp right end); higher = more efficient transposition
Please give only the number in your answer, with no unit.

In the examples that follow, each entry is paired with its recorded relative integration efficiency (log2).
sequence data | relative integration efficiency (log2)
ACATTTGTTGATACAACCATAAAATGATAATTACAACCATAAGTTGATATTTTTCAGTGGGTATTTAACTATAACGCTCTGATCATAGTCAGACCAACATTGCTACGACCCGTATTCGCACCGACAC | 2.72
ACATTTGTCGATACAACCCTAAAATGATAATTACACCCATAAATTCATCATTATCACCCCCAATTTAACTATAACGCTCTGATCATAGTCAGACCAACATTGCTACGACCCGTATTCGCACCGACAC | -1.16

# next sequence below
IN: Give its relative integration efficiency (log2) value. Item: ACATTTGTTGATACAACCATAACCTGATAATTACACCCATAAATTGATAATTATCACACCCATAAATTGATATTGCCTCTGATCATAGTCAGACCAACATTGCTACGACCCGTATTCGCACCGACAC
OUT: -0.337

----------
relative integration efficiency (log2) by entry:
System: VchCAST RNA-guided transposition machinery (E. coli BL21(DE3) host, lacZ target)
assay overview: relative integration efficiency (T-LR orientation) vs wild-type transposon end (log2 (normalized fold change)); transposon end mutated: right end (5 bp flank + 75 bp right end); higher = more efficient transposition
Please give only the number in your answer, with no unit.

Guide cases for relative integration efficiency (log2), answers given:
sequence data | relative integration efficiency (log2)
ACATTTGTTGATACAACCATAAAATGATAATTACACCCATAAATTGATAATTCGACCACCCATAAATTGATATTGCCTCTGATCATAGTCAGACCAACATTGCTACGACCCGTATTCGCACCGACAC | 0.317
ACATTTGTTGATAAAACCATAAAATGATAATTAAACCCATAAATTGATAATTATCAAACCCATAAATTGATATTGCCTCTGATCATAGTCAGACCAACATTGCTACGACCCGTATTCGCACCGACAC | -0.129

Then this sequence:
IN: Any idea what relative integration efficiency (log2) was measured for ACATTTGTTGATACAACCATAAAATGCGCCGGCACAAACGCCCGGTCGCCGGCGACACAAACGCCCGGTCGCGGTAAGAGGATCATAGTCAGACCAACATTGCTACGACCCGTATTCGCACCGACAC ?
OUT: -0.733

----------
Parameter relative integration efficiency (log2): see the listing below.
Test system: VchCAST RNA-guided transposition machinery (E. coli BL21(DE3) host, lacZ target)
assay overview: relative integration efficiency (T-LR orientation) vs wild-type transposon end (log2 (normalized fold change)); transposon end mutated: right end (5 bp flank + 75 bp right end); higher = more efficient transposition
Lab note: jot down the number only; don't add units.

Some solved cases for reference:
sequence data | quantitative result
ACATTTGTTGATACAACCATAAAAGGATCATTACCCCCATCAATTGATAATTATCCCACCCCATTTAACTATAACGCTCTGATCATAGTCAGACCAACATTGCTACGACCCGTATTCGCACCGACAC | -1.31
ACATTTGTTGATACAACCATCAAATGATAATTACACCCATCAATTGATAATTATCACACCCATCAATTGATATTGCCTCTGATCATAGTCAGACCAACATTGCTACGACCCGTATTCGCACCGACAC | -1.14
ACATTTGTTGATACAACCATATATTGATATCTCCAACCATAAAATGATAATTATCACAACCATAAAATGATAATTACTCTGATCATAGTCAGACCAACATTGCTACGACCCGTATTCGCACCGACAC | -0.314
ACATTTGTTGATACACCCATAAATTGATAATTACAACCATAAAGTGATATTTATCACAACCATAAAGTGATATTTACTCTGATCATAGTCAGACCAACATTGCTACGACCCGTATTCGCACCGACAC | -0.828

As a next step, examine the sequence that follows.
IN: What does the record list as relative integration efficiency (log2) for ACATTTCATGATACAACCATAAAATGATAATTACACCCATAAATTGATAATTATCACACCCATAAATTGATATTGCCTCTGATCATAGTCAGACCAACATTGCTACGACCCGTATTCGCACCGACAC ?
OUT: -5.68
